# EC50 per record follows
# System: Plasmodium falciparum
# assay comment: NOVARTIS: Inhibition of Plasmodium falciparum W2 (drug-resistant) proliferation in erythrocyte-based infection assay
# Type: functional, organism-based
# cond: Plasmodium falciparum, W2; read-out: EC50
API: value field is a number in nM; no unit string.

O=C(Nc1ccc(Oc2ccc(OC(F)(F)F)cc2)cc1)C1CC1
2770
C[n+]1oc(/C=C/c2ccccc2)cc1/C=C/c1ccccc1
88.8
CC(=O)N(C1=C(N2CCCC2)C(=O)c2ccccc2C1=O)c1ccc(I)cc1
224
COc1ccc(/C=C/c2ccc3ccccc3[n+]2C)cc1OC
867
Cc1ccc(Cn2c(N3CCC(C(=O)NCc4cccs4)CC3)nc3ccccc32)cc1
271

Let's switch to this compound now.
Assay Plasmodium falciparum, sample COC(=O)c1ccc(C2C3=C(CC(c4ccc(OC)cc4)CC3=O)Nc3ccccc3N2C(=O)c2ccccc2)cc1 (stereo unspecified) , EC50 read: 368

---

# CC50 per record follows
# assay comment: NOVARTIS: Cytotoxicity against human hepatocellular carcinoma cell line (Huh7)
# Type: toxicity, cell-based, Huh-7
# cond: Huh7 cells (hepatocellular carcinoma cell line)

Notebook: COc1ccc(C2C(C(=O)OC3CCCC3)=C(C)NC3=C2C(=O)CC(C)(C)C3)cc1Br (stereo not given) , CC50 read as > 100 µM

Notebook: "Oc1ccc(-c2ccccc2)cc1CN1CCCCCC1" , CC50 read as 67.4 µM

Notebook: "CCOC(=O)c1nnn(-c2nonc2N)c1-c1ccc(OC)c(OC)c1" , CC50 read as > 100 µM

Notebook: Cc1ccc(-n2c(C(C)N(CCc3ccccc3)C(=O)c3cccc(F)c3)nc3ccccc3c2=O)c(C)c1 (stereo not given) , CC50 read as > 10 µM

Notebook: "Cc1ccn(CC(=O)N2CCOc3c(cc(-c4csc5ccccc45)cc3OCCc3ccccn3)C2)n1" , CC50 read as 39 µM

Notebook: "CCC[n+]1ccc(/C=C/c2ccc(Br)cc2)cc1" , CC50 read as > 10 µM

Notebook: "Cc1c(C(=O)N2CCN(c3ccc([N+](=O)[O-])cc3)CC2)sc2ncnc(N(C)c3ccccc3)c12" , CC50 read as > 10 µM

Notebook: "CN(CCCNc1ccnc2cc(Cl)ccc12)C(=O)C1CCC1" , CC50 read as 4.57 µM

Notebook: "COc1ccc(CCNc2nc(NCCCn3ccnc3)ncc2C(=O)NCc2ccccc2)cc1OC" , CC50 read as > 10 µM

Notebook: "c1ccc(CN2CCC(Nc3ncnc4cc(-c5ccccc5)sc34)CC2)cc1" , CC50 read as > 100 µM

Notebook: "COc1ccc(/C=C/c2ccc3ccccc3[n+]2C)cc1OC" , CC50 read as > 10 µM

Notebook: "COc1ccc(C(c2ccc(N(C)C)cc2)c2ccc(N(C)C)cc2)cc1" , CC50 read as > 100 µM

Notebook: "COC(=O)c1c(S(=O)(=O)N2CCN(C)CC2)sc2c1CCN(CCCc1ccccc1)C2" , CC50 read as > 10 µM

Notebook: COc1ccc(C2CC(=O)C3=C(C2)NC(C)=C(C(=O)OC2CCCC2)C3c2ccc(Cl)cc2Cl)cc1 (stereo not given) , CC50 read as > 100 µM

---

# CC50 per record follows
# assay comment: NOVARTIS: Cytotoxicity against human hepatocellular carcinoma cell line (Huh7)
# Format: toxicity, cell-based, Huh-7
# cond: Huh7 cells (hepatocellular carcinoma cell line)

Cc1ccc(NC(=O)c2sc3nc4c(c(-c5ccc(C)cc5)c3c2N)CCC4)cc1
> 100 µM
CCOC(=O)C1=C(N)OC2=C(C(=O)CC(c3ccccc3)C2)C1c1ccc(Cl)cc1Cl (stereo not given)
> 10 µM
COc1cc(OC)cc(-n2nc(C(=O)NC3CCCCC3)c3ccccc3c2=O)c1
> 10 µM

Notebook: "Cc1cccn2c(NCc3ccccc3)c(-c3ccccc3OC(=O)CCCCl)nc12" , CC50 read as > 10 µM

Notebook: "CN(CCCNc1ccnc2cc(Cl)ccc12)C(=O)c1ccc(Cl)cc1" , CC50 read as > 8.53 µM

Notebook: CCOC(=O)C1=C(C)NC2=C(C(=O)C(C(=O)OCC)C(c3cccc(OC)c3)C2)C1c1ccc(OC)c(OC)c1 (stereo not given) , CC50 read as > 100 µM

Notebook: COc1cc(NC(C)CCCN(Cc2ccc(Cl)cc2)C(=O)c2ccc(Cl)cc2Cl)c2ncccc2c1 (stereo not given) , CC50 read as 4.87 µM

Notebook: Cc1ccccc1Oc1cc(NC(=O)c2cc3n(n2)C(C(F)(F)F)CC(c2ccccc2)N3)cc(Oc2ccccc2C)c1 (stereo not given) , CC50 read as > 100 µM

Notebook: "CSc1ccccc1CN1CCc2nc(N3CCCCC3)sc2C1" , CC50 read as > 10 µM

Notebook: OCC1CCCCN1Cc1cc(-c2ccccc2)ccc1O (stereo not given) , CC50 read as > 10 µM
